# Measured on: MDM2 (Homo sapiens, UniProt Q00987)
# Construct: made in house
# Sequence (Q00987 whole entry): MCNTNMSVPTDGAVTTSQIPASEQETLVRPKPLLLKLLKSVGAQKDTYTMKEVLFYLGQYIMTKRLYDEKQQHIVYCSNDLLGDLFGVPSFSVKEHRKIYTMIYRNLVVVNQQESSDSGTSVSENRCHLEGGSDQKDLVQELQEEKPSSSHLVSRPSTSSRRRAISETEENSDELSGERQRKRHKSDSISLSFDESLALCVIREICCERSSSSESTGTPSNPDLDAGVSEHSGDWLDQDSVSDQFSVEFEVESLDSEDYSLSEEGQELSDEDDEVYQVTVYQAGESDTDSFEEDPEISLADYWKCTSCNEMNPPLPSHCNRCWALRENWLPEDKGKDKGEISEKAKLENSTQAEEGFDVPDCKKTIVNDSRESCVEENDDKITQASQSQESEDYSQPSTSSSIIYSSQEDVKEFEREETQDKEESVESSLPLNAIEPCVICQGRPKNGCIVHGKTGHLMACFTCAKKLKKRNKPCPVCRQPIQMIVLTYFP
# Test description: Inhibition test of MDM2-P53 (GST-MDM2, Biotin-P53, Anti-GST-Tb, SA-XL665)
# Format: binding
In this section, each of the molecules is paired with its reported log10 IC50.
Scale: log10; quantity: IC50; unit before log: nM

Below are worked cases with known answers.
Molecule	Measured on	Measured parameter	Value reported
COc1cc(OC)c(-c2nc3c(n2C(C)C)[C@@]2(C(=O)Nc4cc(Cl)ccc42)N(c2ccc(C(N)=O)c(Cl)c2)C3=O)cn1 [Example S-65]	MDM2 (Homo sapiens, UniProt Q00987)	log10 IC50	0.61
COc1cc(C(F)(F)F)ncc1-c1nc2c(n1C(C)C)[C@]1(C(=O)Nc3cc(Cl)ccc31)N(c1cccc(Cl)c1)C2=O [Example R-142]	MDM2 (Homo sapiens, UniProt Q00987)	log10 IC50	2.14
COc1cc(C(=O)N(C)C)ccc1-c1nc2c(n1C(C)C)[C@@]1(C(=O)Nc3cc(Cl)ccc31)N(c1cc(Cl)ccc1C)C2=O [Example S-68]	MDM2 (Homo sapiens, UniProt Q00987)	log10 IC50	0.37
COc1ncc(-c2cc3c(n2C(C)C)[C@@]2(C(=O)Nc4cc(Cl)ccc42)N(c2cc(Cl)ccc2C)C3=O)c(OC)n1 [Example S-50]	MDM2 (Homo sapiens, UniProt Q00987)	log10 IC50	1.93
COc1cc(C(C)C)ncc1-c1nc2c(n1C(C)C)[C@]1(C(=O)Nc3cc(Cl)ccc31)N(c1cc(Cl)ccc1C)C2=O [Example R-164]	MDM2 (Homo sapiens, UniProt Q00987)	log10 IC50	2.77

According to the records, this molecule CCOc1ncc(-c2nc3c(n2C(C)C)[C@]2(C(=O)Nc4cc(Cl)ccc42)N(c2cccc(Cl)c2)C3=O)c(OC)n1 [Example R-123] displays log10 IC50 of 2.06

According to the records, this molecule COc1cc(C(C)(C)C)ccc1-c1nc2c(n1C(C)C)[C@@]1(C(=O)Nc3cc(Cl)ccc31)N(c1cc(Cl)ccc1C)C2=O [Example S-101] displays log10 IC50 of 0.99

According to the records, this molecule COc1cc(N)ccc1-c1nc2c(n1C(C)C)[C@@]1(C(=O)Nc3cc(Cl)ccc31)N(c1cc(Cl)ccc1F)C2=O [Example S-66] displays log10 IC50 of 0.18

According to the records, this molecule COc1cc(C(C)C)ccc1-c1nc2c(n1C(C)C)[C@]1(C(=O)Nc3cc(Cl)ccc31)N(c1cccc(Cl)c1)C2=O [Example R-93] displays log10 IC50 of 2.82

According to the records, this molecule COc1cc(N)c(C)cc1-c1nc2c(n1C(C)C)[C@]1(C(=O)Nc3cc(Cl)ccc31)N(c1cc(Cl)ccc1C)C2=O [Example R-74] displays log10 IC50 of 1.97

According to the records, this molecule COc1cc(OC(C)C)ncc1-c1nc2c(n1C(C)C)[C@]1(C(=O)Nc3cc(Cl)ccc31)N(c1cc(Cl)ccc1C)C2=O [Example R-69] displays log10 IC50 of 2.80

Values compiled from patent US11339171B2.
